Measured Ki accompanies every entry in the list below.
- subject.of.test: Thermolysin (Bacillus thermoproteolyticus)
- Sequence (P00800 whole entry): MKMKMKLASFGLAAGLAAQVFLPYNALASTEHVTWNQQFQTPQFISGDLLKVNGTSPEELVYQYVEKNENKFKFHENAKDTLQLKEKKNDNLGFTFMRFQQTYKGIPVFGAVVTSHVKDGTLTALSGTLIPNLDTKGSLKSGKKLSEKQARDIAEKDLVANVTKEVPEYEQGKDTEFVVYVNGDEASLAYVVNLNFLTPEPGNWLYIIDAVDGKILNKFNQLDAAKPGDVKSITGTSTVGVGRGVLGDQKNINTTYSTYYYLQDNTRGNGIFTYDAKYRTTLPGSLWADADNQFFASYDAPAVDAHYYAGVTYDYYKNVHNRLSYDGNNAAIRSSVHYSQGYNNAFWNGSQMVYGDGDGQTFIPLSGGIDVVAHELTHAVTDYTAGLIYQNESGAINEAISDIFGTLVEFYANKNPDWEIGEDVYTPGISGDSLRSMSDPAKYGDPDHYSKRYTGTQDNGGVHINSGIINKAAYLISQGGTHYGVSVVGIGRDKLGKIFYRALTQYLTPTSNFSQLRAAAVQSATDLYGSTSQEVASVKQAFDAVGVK
I only need the number, in nM, no unit after it.

Take a look at these entries with their results.
compound: C[C@H](NC(=O)C(CS)Cc1ccccc1)C(=O)NCC(N)=O (stereo partly specified)
subject.of.test: Thermolysin (Bacillus thermoproteolyticus)
endpoint.name: Ki
result.number: 750
//
compound: O=C(O)CC(=O)N[C@@H](CS)Cc1ccccc1
subject.of.test: Thermolysin (Bacillus thermoproteolyticus)
endpoint.name: Ki
result.number: 2300
//
compound: CC(C)C[C@H](NP(=O)(O)O)C(N)=O
subject.of.test: Thermolysin (Bacillus thermoproteolyticus)
endpoint.name: Ki
result.number: 21300
//
compound: CC(C)C[C@H](NP(=O)(O)O[C@@H]1O[C@@H](C)[C@H](O)[C@@H](O)[C@H]1O)C(=O)N[C@@H](Cc1c[nH]c2ccccc12)C(=O)O
subject.of.test: Thermolysin (Bacillus thermoproteolyticus)
endpoint.name: Ki
result.number: 28
//
compound: CC(C)C[C@H](NC(CCCc1ccccc1)C(=O)O)C(=O)N[C@@H](Cc1c[nH]c2ccccc12)C(=O)O (stereo partly specified)
subject.of.test: Thermolysin (Bacillus thermoproteolyticus)
endpoint.name: Ki
result.number: 50

Query: Fill in the blank: the reported Ki of O=C(O)CNC(=O)C(CS)Cc1ccccc1 (stereo unspecified) is ____.
Result: 1800

// provenance: ChEMBL document CHEMBL1126029
